Test system: MS2 coat protein
testDescription: apparent KD of MS2 coat protein; designed switch direction (-1 OFF switch, 1 ON switch): -1; higher = weaker reporter binding
conditionLabel: input ligand: microRNA oligo, concentration not stated
We use 50 nM as the dividing line for apparent KD of MS2 coat protein: on or above the line is Y, below is N.

Example entries and their recorded answers appear below.
Input: Could you tell me if the measured apparent KD of MS2 coat protein of AAUAACAGAGGAUAUACUGUUUUAUGUGUUUGUUAUUUUGAACAUGAGGAUCACCCAUGUAGAAGGCUGAAUAA [JMF 23] (Eterna round: R96, puzzle: Exclusion 2) reaches 50 nM or more?
Output: N

Input: Decide: is the reported value of apparent KD of MS2 coat protein for UAUAUAUAGUAAGGAUAUGUAAUUAUUUAAUAAACAGAAGGUACUGACAUGAGGAUCACCCAUGUUUUAGUGUGGGCAUGUAGA [JMF's solution 41] (Eterna round: R96, puzzle: Exclusion NG 1) equal to or greater than 50 nM?
Output: Y

Input: For this sequence, is measured apparent KD of MS2 coat protein 50 nM or higher? CAGUCGAUAAGAUCAAUUAAUUAACAUGAGGAUCACCCAUGUGAGGAUAUCAGCUCGUGUAGAGCUGAGAAGGCACAACGACUG [ExNG3/17-A3] (Eterna round: R96, puzzle: Exclusion NG 3)
Output: Y

Turning now to a further sequence:
Input: Decide: apparent KD of MS2 coat protein of AAACGGCAGGGAGGAUAUGCUUGCCUGGGUCGUCUUCAGACAUGAGGAUCACCCAUGUAGUCGACGCAGAAGGCCCUCAAAGCC [JL ViennaUCT Ontiis mod 5] (Eterna round: R96, puzzle: Exclusion NG 2) >= 50 nM?
Output: N

----------
Test system: MS2 coat protein
testDescription: apparent KD of MS2 coat protein; designed switch direction (-1 OFF switch, 1 ON switch): -1; higher = weaker reporter binding
conditionLabel: input ligand: FMN 200 uM
// values below are reported apparent KD of MS2 coat protein
Reply with just the number (in nM).

Example results:
Input: What does the record list as apparent KD of MS2 coat protein for CUAGUAUAUCAGGAUAUGAUUUUAUAUAUUGGAUCAGAAGGGAUAACAUGAGGAUCACCCAUGUUAAGGAGUGA [JR_Ex6_Sub040] (Eterna round: R97, puzzle: Exclusion 6) ?
Output: 155

Input: Find the recorded apparent KD of MS2 coat protein belonging to UGCGUACAUGAGGAUCACCCAUGUGAGGAUAUUUGGCAUCGCGAGUGCCCAAGGAGAUAGAGAAGGCAUAUGGA [Eternabot (L1) Solution 50] (Eterna round: R97, puzzle: Exclusion 1) and report it.
Output: 34.3

Input: Reported apparent KD of MS2 coat protein, sequence UAUCGGGACUGAGGAUAUUCGUUCGAACACGAAGAAGAAGGUAGUGUCAGGGACAUGAGGAUCACCCAUGUGAUCUCAGUCCUA [JL ViennaUCT Erinle mod 2] (Eterna round: R96, puzzle: Exclusion NG 1) : ____
Output: 130

Input: Field request: apparent KD of MS2 coat protein | item: GCAGCAUAGUUAACAUACUGUUACAUGAGGAUCACCCAUGUACAGGAUAUGGUCUGGAUUACAGGCCAGAAGGGUACAAGCUGC [Eli exng3 - 020] (Eterna round: R96, puzzle: Exclusion NG 3)
Output: 10.7

Kindly review the next sequence as well.
Input: For UCCAGGCGAGGAUAUACAAAGAUUUUUUCGUUUAGUCUCGAACAUGAGGAUCACCCAUGUAGAAGGUGCUUCAC [JR_Ex2_Sub011] (Eterna round: R97, puzzle: Exclusion 2) , what is its reported apparent KD of MS2 coat protein?
Output: 46.6
